# assayProtocol: Toxicity of single-dose NCNU ip in normal mice (deaths)
# Set-up: species or system CDFl mice
# experimentalContext: mouse, in vivo, 500 mg/kg ip, at day 5
property: mortality at 120 h

Which mortality at 120 h is listed for CC(C)(C)CNC(=O)N(CCCl)N=O [NCNU] ?
100%

###

# assayProtocol: Toxicity of single-dose NCNU ip in normal mice (deaths)
# Parameters: species or system CDFl mice
# experimentalContext: mouse, in vivo, 1000 mg/kg ip, at day 1
# Method: Toxicity studies were conducted by injecting a single dose of NCNU ip. Toxicity of NCNU in CDFl Normal Mice
property: mortality at 24 h (%)
Quick note: give the figure in %, leave out the unit.

Any idea what mortality at 24 h was measured for "CC(C)(C)CNC(=O)N(CCCl)N=O" ?
100
